# Tested on: HCT-15 colon
# test-name: NCI tumour cell line growth inhibition, 48 h
Everything with TGI lower than 5 µM is rule not met; everything else, including exactly 5 µM, is rule met.

{"columns": ["molecule", "label"],
 "data": [
  ["Nc1ccn(C2CC(CO)C(O)C2O)c(=O)n1 (stereo not given)", "rule met"],
  ["COc1ccc([N+](=O)[O-])c(S(=O)(=O)c2ccc(Cl)cc2)n1", "rule met"],
  ["CC(C)[C@](O)(C(=O)OCC1CC[N+]2([O-])CC[C@@H](O)C12)[C@H](C)O (stereo not given in full)", "rule met"],
  ["CCOC(=O)c1cn(Cc2ccccc2)c(=O)n1Cc1ccccc1", "rule met"],
  ["NS(=O)(=O)c1ccc(CCN=C=S)cc1", "rule not met"],
  ["NS(=O)(=O)c1ccc(N2N=C3c4ccccc4CC3C2c2ccc(Cl)cc2)cc1 (stereo not given)", "rule met"]
]}

Input line: Evaluate `COc1ccc2c(c1)CC[C@@H]1[C@@H]2CC[C@]2(C)C(c3ccco3)=C(C=O)C[C@@H]12` : TGI at minimum 5 µM?
Output line: rule met

Input line: Evaluate `COc1ccccc1CNCCCN1C(=O)c2ccc3c4c(ccc(c24)C1=O)C(=O)N(CCCNCCCN)C3=O` : TGI at minimum 5 µM?
Output line: rule not met

Input line: Evaluate `NCCNC(=S)S` : TGI at minimum 5 µM?
Output line: rule met

Input line: Evaluate `N#CCCN(c1ccc(-c2nnc(NC(=O)CNNC(=O)CC(=O)Nc3ccccc3)s2)cc1)S(=O)(=O)c1ccccc1` : TGI at minimum 5 µM?
Output line: rule met
